Tested on: Escherichia coli TOP10
Test: shrunken log2 fold change of peptide-encoding DNA abundance (4.5 h post-induction vs induction); higher = less antimicrobial activity (less host growth inhibition)
Settings: time post-induction: 4.5 h; library: site-saturation at positions 5, 18, 19, 20
Reported shrunken log2 fold change values are given for each entry in this list.
The response must contain the number and no unit.

chain_sequence=RRIRIRPPRLPRPRPRPWKRPRP result=-0.0143
chain_sequence=RRIRTRPPRLPRPRPRPTNLPRP result=-0.0724
chain_sequence=RRIRARPPRLPRPRPRPPWIPRP result=0.38
chain_sequence=RRIRARPPRLPRPRPRPPNAPRP result=0.825
chain_sequence=RRIRHRPPRLPRPRPRPAMAPRP result=0.126
chain_sequence=RRIRTRPPRLPRPRPRPTPAPRP result=0.57
chain_sequence=RRIRYRPPRLPRPRPRPPMQPRP result=-0.0424
chain_sequence=RRIRFRPPRLPRPRPRPKLKPRP result=0.0386

Q: # lookup: shrunken log2 fold change of RRIRPRPPRLPRPRPRPGTHPRP
A: -0.017

Q: Continue with RRIRMRPPRLPRPRPRPKCIPRP
A: -0.113

Q: Continue with RRIRQRPPRLPRPRPRPGHMPRP
A: 0.0335

Q: Continue with RRIRNRPPRLPRPRPRPRLIPRP
A: 0.0319

---

Tested on: Escherichia coli TOP10
Assay: shrunken log2 fold change of peptide-encoding DNA abundance (4.5 h post-induction vs induction); higher = less antimicrobial activity (less host growth inhibition)
Conditions: time post-induction: 4.5 h; library: site-saturation at positions 5, 18, 19, 20
Property Name: shrunken log2 fold change
The response must contain the number and no unit.

chain_sequence=RRIRCRPPRLPRPRPRPAWLPRP assayed_target="Escherichia coli TOP10" result=0.303
chain_sequence=RRIRPRPPRLPRPRPRPPSLPRP assayed_target="Escherichia coli TOP10" result=0.381
chain_sequence=RRIRWRPPRLPRPRPRPNLLPRP assayed_target="Escherichia coli TOP10" result=0.0966
chain_sequence=RRIRWRPPRLPRPRPRPNQNPRP assayed_target="Escherichia coli TOP10" result=-0.221
chain_sequence=RRIRFRPPRLPRPRPRPKAVPRP assayed_target="Escherichia coli TOP10" result=-0.00146

Q: # lookup: shrunken log2 fold change of RRIRKRPPRLPRPRPRPVRFPRP
A: 0.397

Q: Continue with RRIRYRPPRLPRPRPRPPDCPRP
A: -0.00396

---

System: Escherichia coli TOP10;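 note: peptides expressed intracellularly from a pBAD plasmid library in pooled LB shake-flask culture, induced with 0.3% L-arabinose, DNA abundance read by NGS, three biological replicates, DESeq2 with apeglm shrinkage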
Assay: shrunken log2 fold change of peptide-encoding DNA abundance (4.5 h post-induction vs induction); higher = less antimicrobial activity (less host growth inhibition)
Conditions: time post-induction: 4.5 h; library: site-saturation at positions 5, 18, 19, 20
Property Name: shrunken log2 fold change
The response must contain the number and no unit.

Record excerpt, results attached:
chain_sequence=RRIRNRPPRLPRPRPRPSKCPRP assayed_target="Escherichia coli TOP10" result=-0.126
chain_sequence=RRIRYRPPRLPRPRPRPKGAPRP assayed_target="Escherichia coli TOP10" result=0.194
chain_sequence=RRIRIRPPRLPRPRPRPLSYPRP assayed_target="Escherichia coli TOP10" result=-0.528
chain_sequence=RRIRSRPPRLPRPRPRPCLPPRP assayed_target="Escherichia coli TOP10" result=-0.133
chain_sequence=RRIRFRPPRLPRPRPRPNGIPRP assayed_target="Escherichia coli TOP10" result=-0.286
chain_sequence=RRIRYRPPRLPRPRPRPYYVPRP assayed_target="Escherichia coli TOP10" result=0.0372

Q: # lookup: shrunken log2 fold change of RRIRTRPPRLPRPRPRPVGDPRP
A: 0.21

Q: Continue with RRIRGRPPRLPRPRPRPTNCPRP
A: 0.31

Q: Continue with RRIRKRPPRLPRPRPRPFQQPRP
A: 0.202

Q: Continue with RRIRYRPPRLPRPRPRPAGVPRP
A: 0.0619

Q: Continue with RRIRLRPPRLPRPRPRPIIPPRP
A: -0.195

Q: Continue with RRIRTRPPRLPRPRPRPRAGPRP
A: 0.41

Q: Continue with RRIRCRPPRLPRPRPRPWRHPRP
A: -0.126

Source listed as the supplement of paper PMC9112550.
